System: LPS-stimulated human peripheral blood mononuclear cells (IL1-β)
Format: cell-based
Conditions: Table 12; cells stimulated with 10 ng/ml LPS; LPS alone 1313 (HH2 derivatives), 1927 (1018 derivatives), 2455 (1002 and hybrid peptides) pg/ml
Ends that are not written are not given here.
# class assignment by measured IL1β Production: bottom range (below 200 pg/mL), center range (200 pg/mL to below 900 pg/mL), top range (900 pg/mL or more)

SUBSTANCE: 1002-L9: single substituted 1002 peptide (VQRWLIVWLIRK-NH2) [Peptide 1002-L9]
CLASS_NAME: bottom range
//
SUBSTANCE: HH2-Q6: single substituted HH2 peptide (VQLRIQVAVIRA-NH2)
CLASS_NAME: top range
//
SUBSTANCE: 1002-V3: single substituted 1002 peptide (VQVWLIVWRIRK-NH2) [Peptide 1002-V3]
CLASS_NAME: bottom range
//
SUBSTANCE: HH2-I3: single substituted HH2 peptide (VQIRIRVAVIRA-NH2)
CLASS_NAME: top range
//
SUBSTANCE: 1002-A2: single substituted 1002 peptide (VARWLIVWRIRK-NH2) [Peptide 1002-A2]
CLASS_NAME: bottom range
//
SUBSTANCE: HH2-R5: single substituted HH2 peptide (VQLRRRVAVIRA-NH2)
CLASS_NAME: top range
//
SUBSTANCE: 1002-W11: single substituted 1002 peptide (VQRWLIVWRIWK-NH2) [Peptide 1002-W11]
CLASS_NAME: bottom range
//
SUBSTANCE: 1018-A1: single substituted 1018 peptide (ARLIVAVRIWRR-NH2) [Peptide 1018-A1]
CLASS_NAME: bottom range
//
SUBSTANCE: 1018-A2: single substituted 1018 peptide (VALIVAVRIWRR-NH2) [Peptide 1018-A2]
CLASS_NAME: bottom range
//
SUBSTANCE: 1002-G5: single substituted 1002 peptide (VQRWGIVWRIRK-NH2) [Peptide 1002-G5]
CLASS_NAME: center range
//
SUBSTANCE: 1002-A8: single substituted 1002 peptide (VQRWLIVARIRK-NH2) [Peptide 1002-A8]
CLASS_NAME: center range
//
SUBSTANCE: 1018-Q1: single substituted 1018 peptide (QRLIVAVRIWRR-NH2) [Peptide 1018-Q1]
CLASS_NAME: bottom range
//
SUBSTANCE: 1018-W8: single substituted 1018 peptide (VRLIVAVWIWRR-NH2) [Peptide 1018-W8]
CLASS_NAME: center range
//
SUBSTANCE: 1018-Q5: single substituted 1018 peptide (VRLIQAVRIWRR-NH2) [Peptide 1018-Q5]
CLASS_NAME: top range

---

Test system: LPS-stimulated human peripheral blood mononuclear cells (IL1-β)
Assay type: cell-based
Settings: Table 12; cells stimulated with 10 ng/ml LPS; LPS alone 1313 (HH2 derivatives), 1927 (1018 derivatives), 2455 (1002 and hybrid peptides) pg/ml
Experimental: LPS from P. aeruginosa strain H103 was highly purified free of proteins and lipids using the Darveau-Hancock method. Briefly, P. aeruginosa was grown overnight in LB broth at 37° C. […] Purified LPS samples were quantitated using an assay for the specific sugar 2-keto-3-deoxyoctosonic acid (KDO assay) and then resuspended in endotoxin-free water (Sigma-Aldrich).
Ends that are not written are not given here.
// IL1β Production lookup, one value per entry
MEASURE: IL1β Production

SUBSTANCE: HH2-A1: single substituted HH2 peptide (AQLRIRVAVIRA-NH2)
MEASURED_RESULT: 1587 pg/mL
--
SUBSTANCE: 1002-G6: single substituted 1002 peptide (VQRWLGVWRIRK-NH2) [Peptide 1002-G6]
MEASURED_RESULT: 1098 pg/mL
--
SUBSTANCE: 1018-Q12: single substituted 1018 peptide (VRLIVAVRIWRQ-NH2) [Peptide 1018-Q12]
MEASURED_RESULT: 655 pg/mL
--
SUBSTANCE: HH2-K3: single substituted HH2 peptide (VQKRIRVAVIRA-NH2)
MEASURED_RESULT: 1761 pg/mL
--
SUBSTANCE: 1002-V10: single substituted 1002 peptide (VQRWLIVWRVRK-NH2) [Peptide 1002-V10]
MEASURED_RESULT: 127 pg/mL
--
SUBSTANCE: HH2-A7: single substituted HH2 peptide (VQLRIRAAVIRA-NH2)
MEASURED_RESULT: 1713 pg/mL

---

Test system: LPS-stimulated human peripheral blood mononuclear cells (IL1-β)
Type: cell-based
Conditions: Table 12; cells stimulated with 10 ng/ml LPS; LPS alone 1313 (HH2 derivatives), 1927 (1018 derivatives), 2455 (1002 and hybrid peptides) pg/ml
Ends that are not written are not given here.
// IL1β Production lookup, one value per entry
MEASURE: IL1β Production (pg/mL)

SUBSTANCE: HH2-I6: single substituted HH2 peptide (VQLRIIVAVIRA-NH2)
MEASURE: IL1β Production
READOUT_UNIT: pg/mL
MEASURED_RESULT: 984
--
SUBSTANCE: 1018-I3: single substituted 1018 peptide (VRIIVAVRIWRR-NH2) [Peptide 1018-I3]
MEASURE: IL1β Production
READOUT_UNIT: pg/mL
MEASURED_RESULT: 156
--
SUBSTANCE: 1002-G9: single substituted 1002 peptide (VQRWLIVWGIRK-NH2) [Peptide 1002-G9]
MEASURE: IL1β Production
READOUT_UNIT: pg/mL
MEASURED_RESULT: 127
--
SUBSTANCE: 1002-W3: single substituted 1002 peptide (VQWWLIVWRIRK-NH2) [Peptide 1002-W3]
MEASURE: IL1β Production
READOUT_UNIT: pg/mL
MEASURED_RESULT: 127
--
SUBSTANCE: 1018-Q8: single substituted 1018 peptide (VRLIVAVQIWRR-NH2) [Peptide 1018-Q8]
MEASURE: IL1β Production
READOUT_UNIT: pg/mL
MEASURED_RESULT: 127
--
SUBSTANCE: 1018-Q11: single substituted 1018 peptide (VRLIVAVRIWQR-NH2) [Peptide 1018-Q11]
MEASURE: IL1β Production
READOUT_UNIT: pg/mL
MEASURED_RESULT: 1625
--
SUBSTANCE: 1018-A5: single substituted 1018 peptide (VRLIAAVRIWRR-NH2) [Peptide 1018-A5]
MEASURE: IL1β Production
READOUT_UNIT: pg/mL
MEASURED_RESULT: 752
--
SUBSTANCE: 1018-V3: single substituted 1018 peptide (VRVIVAVRIWRR-NH2) [Peptide 1018-V3]
MEASURE: IL1β Production
READOUT_UNIT: pg/mL
MEASURED_RESULT: 295
--
SUBSTANCE: 1002-Q7: single substituted 1002 peptide (VQRWLIQWRIRK-NH2) [Peptide 1002-Q7]
MEASURE: IL1β Production
READOUT_UNIT: pg/mL
MEASURED_RESULT: 138
--
SUBSTANCE: 1018-A4: single substituted 1018 peptide (VRLAVAVRIWRR-NH2) [Peptide 1018-A4]
MEASURE: IL1β Production
READOUT_UNIT: pg/mL
MEASURED_RESULT: 521
--
SUBSTANCE: HH2-R12: single substituted HH2 peptide (VQLRIRVAVIRR-NH2)
MEASURE: IL1β Production
READOUT_UNIT: pg/mL
MEASURED_RESULT: 1618
--
SUBSTANCE: 1018-G4: single substituted 1018 peptide (VRLGVAVRIWRR-NH2) [Peptide 1018-G4]
MEASURE: IL1β Production
READOUT_UNIT: pg/mL
MEASURED_RESULT: 511
--
SUBSTANCE: HH2-I12: single substituted HH2 peptide (VQLRIRVAVIRI-NH2)
MEASURE: IL1β Production
READOUT_UNIT: pg/mL
MEASURED_RESULT: 667
--
SUBSTANCE: 1002-K1: single substituted 1002 peptide (KQRWLIVWRIRK-NH2) [Peptide 1002-K1]
MEASURE: IL1β Production
READOUT_UNIT: pg/mL
MEASURED_RESULT: 127
--
SUBSTANCE: HH2-W8: single substituted HH2 peptide (VQLRIRVWVIRA-NH2)
MEASURE: IL1β Production
READOUT_UNIT: pg/mL
MEASURED_RESULT: 553
--
SUBSTANCE: HH2-Q1: single substituted HH2 peptide (QQLRIRVAVIRA-NH2)
MEASURE: IL1β Production
READOUT_UNIT: pg/mL
MEASURED_RESULT: 1171
